Test system: wheat (Triticum aestivum L.), TRZAX
Experiment summary: Test Example 2 post-emergence (foliage treatment) herbicidal activity, TRZAX
Assay type: in vivo
Measurement parameters: 63 g a.i./ha
Please assign No whenever growth controlling degree, TRZAX is at or above 10%, and Yes whenever it is below.

Some solved entries appear below for comparison.
Smiles structure	Assigned label
CNc1c(OC)c(Cl)cc(F)c1-c1nn(C)c(OC(F)F)c1Cl	No
COc1c(Cl)cc(F)c(-c2nn(C)c(OC(F)F)c2Cl)c1NC(=O)c1cccc(Cl)c1	No

[ask] Hello, is growth controlling degree, TRZAX of the following compound strictly smaller than 10%? COc1c(Cl)cc(F)c(-c2nn(C)c(OC(F)F)c2Cl)c1NC(=O)c1ccc(C)cc1
[reply] No

[ask] Hello, is growth controlling degree, TRZAX of the following compound strictly smaller than 10%? COc1c(Cl)cc(F)c(-c2nn(C)c(OC(F)F)c2Cl)c1NC(=O)c1ccc(C#N)cc1
[reply] No

[ask] Hello, is growth controlling degree, TRZAX of the following compound strictly smaller than 10%? COc1ccc(OC(=O)N(C(=O)Oc2ccc(OC)cc2)c2c(OC)c(Cl)cc(F)c2-c2nn(C)c(OC(F)F)c2Cl)cc1
[reply] Yes
